Data provenance: patent US11180504B2

tested on: carbapenemase producing K. pneumoniae; assay: MIC by broth micro-dilution (CLSI), carbapenemase producing K. pneumoniae; type: cell-based, Klebsiella pneumoniae; conditions: Klebsiella pneumoniae, ATCCBAA1705, KPC-2 K. pneumoniae ATCC BAA-1705; read-out: MIC
outcome.measure: MIC (µg/mL)
Enter your answer as a number in µg/mL; do not include the unit.

| compound | output.unit | MIC |
| --- | --- | --- |
| C[C@@H](NC(=O)[C@H]1CS(=O)(=O)CN1)[C@H]1C(=O)N2C(C(=O)O)=C(S[C@@H]3CN[C@H](C(=O)N(C)C)C3)[C@H](C)[C@H]12 [Example 284] | µg/mL | 4 |
| CCOC(=O)c1nnnn1CC(=O)N[C@H](C)[C@H]1C(=O)N2C(C(=O)O)=C(S[C@@H]3CN[C@H](C(=O)N(C)C)C3)[C@H](C)[C@H]12 [Example 338] | µg/mL | 32 |
| C[C@@H](NC(=O)Cn1cnnn1)[C@H]1C(=O)N2C(C(=O)O)=C(S[C@@H]3CN[C@H](C(=O)N4CC[C@@H](N)C4)C3)[C@H](C)[C@H]12 [Example 298] | µg/mL | 1 |
| C[C@H]([C@H]1C(=O)N2C(C(=O)O)=C(SC3CN[C@H](C(=O)N(C)C)C3)[C@H](C)[C@H]12)n1cc(CN)nn1 (some centres unmarked) [Example 177] | µg/mL | 2 |

Now let's try a different one.
Requested field: MIC. Item: CNCC(=O)N[C@H](C)[C@H]1C(=O)N2C(C(=O)O)=C(S[C@@H]3CN[C@H](C(=O)N4C[C@@H](O)[C@@H](N)C4)C3)[C@H](C)[C@H]12 [Example 218] 2

###

test system: carbapenemase producing K. pneumoniae; assay: MIC by broth micro-dilution (CLSI), carbapenemase producing K. pneumoniae; type: cell-based, Klebsiella pneumoniae; conditions: Klebsiella pneumoniae, ATCCBAA1705, KPC-2 K. pneumoniae ATCC BAA-1705; read-out: MIC
outcome.measure: MIC (µg/mL)
Enter your answer as a number in µg/mL; do not include the unit.

Previously resolved entries follow.
| smiles.record | study.target | MIC, µg/mL |
| --- | --- | --- |
| C[C@@H](NC(=O)CNC(=N)N)[C@H]1C(=O)N2C(C(=O)O)=C(S[C@@H]3CN[C@H](C(=O)N(C)C)C3)[C@H](C)[C@H]12 | carbapenemase producing K. pneumoniae | 2 |
| C[C@@H](NC(=O)Cn1cnnn1)[C@H]1C(=O)N2C(C(=O)O)=C(S[C@@H]3CN[C@H](C(=O)N4CCN(C(=O)[C@@H](N)CO)CC4)C3)[C@H](C)[C@H]12 | carbapenemase producing K. pneumoniae | 1 |
| C[C@@H](NC(=O)CN1CCn2nnnc2C1)[C@H]1C(=O)N2C(C(=O)O)=C(S[C@@H]3CN[C@H](C(=O)N4CC[C@@H](N)C4)C3)[C@H](C)[C@H]12 | carbapenemase producing K. pneumoniae | 16 |
| C[C@@H](NC(=O)Cn1cnnn1)[C@H]1C(=O)N2C(C(=O)O)=C(S[C@@H]3CN[C@H](C(=O)N4CCN(C(=O)CN)CC4)C3)[C@H](C)[C@H]12 | carbapenemase producing K. pneumoniae | 1 |
| C[C@H]([C@H]1C(=O)N2C(C(=O)O)=C(S[C@@H]3CN[C@H](C(=O)N(C)C)C3)[C@H](C)[C@H]12)n1ncnn1 | carbapenemase producing K. pneumoniae | 16 |
| C[C@@H](NC(=O)Cn1cnnn1)[C@H]1C(=O)N2C(C(=O)O)=C(S[C@@H]3CN[C@H](C(=O)N4CCC(CNCC(N)=O)CC4)C3)[C@H](C)[C@H]12 | carbapenemase producing K. pneumoniae | 1 |
| C[C@@H](NC(=O)Cn1cnnn1)[C@H]1C(=O)N2C(C(=O)O)=C(S[C@@H]3CN[C@H](C(=O)N4CCC(CNCCN)CC4)C3)[C@H](C)[C@H]12 | carbapenemase producing K. pneumoniae | 2 |
| CNCC(=O)N[C@H](C)[C@H]1C(=O)N2C(C(=O)O)=C(S[C@@H]3CN[C@H](C(=O)N4C[C@@H](N)C[C@H]4CN)C3)[C@H](C)[C@H]12 | carbapenemase producing K. pneumoniae | 8 |

Requested field: MIC. Item: C[C@@H](NC(=O)Cn1cnnn1)[C@H]1C(=O)N2C(C(=O)O)=C(S[C@@H]3CN[C@H](C(=O)N4CCC(F)(CN)CC4)C3)[C@H](C)[C@H]12 8

Next up: C[C@@H](NC(=O)OCC(F)F)[C@H]1C(=O)N2C(C(=O)O)=C(S[C@@H]3CN[C@H](C(=O)N(C)C)C3)[C@H](C)[C@H]12 16
